Target: T1, human Nectin-4 (Homo sapiens, UniProt Q96NY8)
T1 sequence (Q96NY8 32-510): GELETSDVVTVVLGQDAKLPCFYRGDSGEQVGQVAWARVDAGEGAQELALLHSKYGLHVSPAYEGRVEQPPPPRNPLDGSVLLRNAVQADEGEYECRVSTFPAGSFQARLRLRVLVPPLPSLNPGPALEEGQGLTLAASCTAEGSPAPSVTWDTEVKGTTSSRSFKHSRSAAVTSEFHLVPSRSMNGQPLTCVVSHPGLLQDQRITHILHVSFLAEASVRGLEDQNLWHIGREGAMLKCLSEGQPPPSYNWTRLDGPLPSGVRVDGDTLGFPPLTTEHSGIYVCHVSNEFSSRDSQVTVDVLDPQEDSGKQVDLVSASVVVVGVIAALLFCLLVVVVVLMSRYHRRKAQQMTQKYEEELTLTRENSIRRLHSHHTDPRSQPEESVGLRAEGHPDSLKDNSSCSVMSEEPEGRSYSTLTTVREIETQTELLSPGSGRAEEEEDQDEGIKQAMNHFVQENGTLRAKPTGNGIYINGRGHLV
Test: Binding to human Nectin-4 by SPR
Settings: SPR; human IgG1 isotype antibodies; first set (Table 4)
ASSAY_READOUT: Kd

Can you share its Kd? I mean this molecule: H3L3 (antibody, human IgG1, V domains shown, human IgG1 isotype) VH: QVQLVQSGAEVKKPGASVKVSCKASGYIFTSYWMHWVRQAPGQGLEWMGEIDPSDSYTNYNQKFKGRVTMTLDKSTSTTYMELSSLRSEDTAVYYCARGYGNYGDYWGQGTLVTVSS VL: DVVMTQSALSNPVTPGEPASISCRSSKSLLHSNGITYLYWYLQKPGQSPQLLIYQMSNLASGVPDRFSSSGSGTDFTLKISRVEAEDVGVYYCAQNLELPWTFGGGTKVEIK
27 nM
